tested on: L1210 leukemia ip in BDF1 mice, survival T/C; assay: NCI In Vivo Anticancer Drug Screen. Data for tumor model L1210 Leukemia (intraperitoneal) in B6D2F1 (BDF1) mice; conditions: endpoint: mean survival time; dose: 400.0 mg/kg/injection; schedule: Q04DX003 (ip); vehicle: saline; higher = longer survival
Toxic doses and inconclusive results are not listed.
Reported T/C values follow for various molecules
Readout type: T/C

COc1ccc(Br)cc1/C=N\NS(=O)(=O)c1ccc(C)cc1: 93 % of control
CC(=O)Nc1ccc(OC(=O)Nc2ccc([N+](=O)[O-])cc2Cl)cc1: 103 % of control
COC(=O)C(C)CN1CCCCCC1 (configuration not stated): 102 % of control
COC(=O)/C=C/C(=O)OC: 103 % of control
O=CN(Cc1cnccn1)Cc1cnccn1: 96 % of control
C=C(CC)C(=O)OCC: 96 % of control
NCCN1CCN=C1C1=NCCN1CCN: 96 % of control

----------
Reported T/C values follow for various molecules
tested on: L1210 leukemia ip in BDF1 mice, survival T/C; assay: NCI In Vivo Anticancer Drug Screen. Data for tumor model L1210 Leukemia (intraperitoneal) in B6D2F1 (BDF1) mice; settings: endpoint: mean survival time; dose: 200.0 mg/kg/injection; schedule: Q04DX003 (ip); vehicle: saline with Tween-80; higher = longer survival
Inconclusive results and toxic doses are left out.
Readout type: T/C

CCC(=O)Nc1cccc(OC(=O)N(C)C)c1: 98 % of control
CC(C)N1CNC(=O)C12CCN(CC1COc3ccccc3O1)CC2 (configuration not stated): 106 % of control
N#CC1CC2c3ccccc3C1c1ccccc12 (configuration not stated): 94 % of control
O=C(c1ccccc1)c1cccc(C(Br)Br)c1: 95 % of control
O=C(Nc1ccccc1)C1C2C=CC(CC2)C1C(=O)Nc1ccccc1 (configuration not stated): 107 % of control
C(/C=C/C=C/Nc1ccccc1)=Nc1ccccc1: 104 % of control
CCc1oc(N)nc1-c1ccccc1: 101 % of control

----------
Reported T/C values follow for various compounds
system: L1210 leukemia ip in BDF1 mice, survival T/C; experiment: NCI In Vivo Anticancer Drug Screen. Data for tumor model L1210 Leukemia (intraperitoneal) in B6D2F1 (BDF1) mice; conditions: endpoint: mean survival time; dose: 400.0 mg/kg/injection; schedule: Q04DX003 (ip); vehicle: saline; higher = longer survival
Toxic doses and inconclusive results are not listed. Square brackets hold non-standard residues; d marks the D form. Peptide text beside a SMILES is read from it. * marks the point of attachment. Cbz = O=C(OCc1ccccc1)*; Sar = CNCC(=O)O
Readout type: T/C

CCCCOCC(C)O (stereo not drawn): 96 % of control
CCCC(O)C[N+](=O)[O-] (stereo not drawn): 101 % of control
O=C(c1ccccc1)C1CC1c1ccccc1 (stereo not drawn): 103 % of control
CN(Cc1ccc([N+](=O)[O-])cc1)C(=O)Nc1ccc(S(=O)(=O)F)cc1: 104 % of control
O=S(=O)(O)c1ccc2c(O)cc(S(=O)(=O)O)cc2c1: 100 % of control
Cc1cc(C)cc(OCC2CNC(=O)O2)c1 (stereo not drawn): 113 % of control
Nc1ccc(OCC(=O)N2CCOCC2)c(Cl)c1: 101 % of control
O=[N+]([O-])C1C=CCS1(=O)=O (stereo not drawn): 86 % of control
CC1CNC(=S)O1 (stereo not drawn): 108 % of control
CO/N=C/c1ccc([N+](=O)[O-])s1: 98 % of control
NCC(Cc1ccc(O)cc1)P(=O)(O)O (stereo not drawn): 92 % of control
O=C1CCC(N2C(=O)C3C4C=CC(C4)C3C2=O)C(=O)N1 (stereo not drawn): 97 % of control
COC(=O)CN(C)C(=O)CNC(=O)OCc1ccccc1 (Cbz-Gly-[Sar]-OMe): 100 % of control

----------
tested on: L1210 leukemia ip in BDF1 mice, survival T/C; assay: NCI In Vivo Anticancer Drug Screen. Data for tumor model L1210 Leukemia (intraperitoneal) in B6D2F1 (BDF1) mice; conditions: endpoint: mean survival time; dose: 25.0 mg/kg/injection; schedule: Q01DX001 (ip); vehicle: saline with Tween-80
Inconclusive results and toxic doses are left out. Cut-off read from the data, not from the text of the source: active = T/C of 150% or more; inactive = T/C below 125%.
Classes used: 1 (yes) for active, 0 (no) for inactive

C[N+](C)(Cc1ccccc1)CC(O)COc1ccccc1 (stereo not given): 0 (no)
O=C(Nc1ccc(Cl)c(Cl)c1)c1ccco1: 0 (no)
O=C(O)c1cccc(CBr)c1CBr: 0 (no)
CCOC(=O)NC(S(=O)(=O)O)S(=O)(=O)O.[Tl]: 0 (no)
CN1CCN(c2ccccc2)CC1: 1 (yes)

----------
Reported T/C values follow for various molecules
tested on: L1210 leukemia ip in BDF1 mice, survival T/C; experiment: NCI In Vivo Anticancer Drug Screen. Data for tumor model L1210 Leukemia (intraperitoneal) in B6D2F1 (BDF1) mice; settings: endpoint: mean survival time; dose: 100.0 mg/kg/injection; schedule: Q01DX001 (ip); vehicle: other; higher = longer survival
Toxic doses and inconclusive results are not listed.
Readout type: T/C

Oc1[nH]c(=S)sc1/C=C1\C=NN=N1: 108 % of control
Cc1cc(CC(C)C)c(C(N)=O)cc1C: 108 % of control
N#CCCCCCCCCC(=O)OCCC#N: 95 % of control
CCCN(CCC)[N+](=O)[O-]: 98 % of control
CCCCCCCCCCCCCCCCCC(=O)OCC(=O)C(OC(=O)CCCCCCCCCCCCCCCCC)C(OC(=O)CCCCCCCCCCCCCCCCC)C(COC(=O)CCCCCCCCCCCCCCCCC)OC(=O)CCCCCCCCCCCCCCCCC (configuration not stated): 95 % of control
O=[N+]([O-])c1ccc(NN=C(C2CC2)C2CC2)c([N+](=O)[O-])c1: 95 % of control
S=c1[nH]c(=S)c2[nH]cnc2[nH]1: 101 % of control
CNC(=O)Oc1ccc(N=Nc2ccccc2)cc1: 96 % of control
CCOc1ccc(NC(C)=O)cc1Br: 103 % of control
O=C(O)c1ccc(C2CC2)cc1: 103 % of control
CC(C)OC(=O)c1ccc(N)cc1S(N)(=O)=O: 106 % of control
CCCCCCN(CCCCCC)[N+](=O)[O-]: 96 % of control

----------
tested on: L1210 leukemia ip in BDF1 mice, survival T/C; test: NCI In Vivo Anticancer Drug Screen. Data for tumor model L1210 Leukemia (intraperitoneal) in B6D2F1 (BDF1) mice; settings: endpoint: mean survival time; dose: 400.0 mg/kg/injection; schedule: Q01DX001 (ip); vehicle: Klucel (hydroxypropylcellulose) (HPC); higher = longer survival
Inconclusive results and toxic doses are left out.
Reported T/C values follow for various compounds
Readout type: T/C

CSc1cccc(C(=O)O)c1: 94 % of control
O=C1c2ccccc2C(=O)N1c1ccc([N+](=O)[O-])cc1: 103 % of control
CCCCCCCCCCCCCCBr: 94 % of control
Cc1cc(=O)[nH]c2c1CCCCC2: 96 % of control
CC1(C)C2CC3C=CCCC3(C2)C1Br (configuration not stated): 100 % of control
O=[N+]([O-])c1ccc(NCc2ccccc2O)cc1: 101 % of control
CC(=O)Nc1ccc2c(c1)C(=O)NC2=O: 90 % of control

----------
tested on: L1210 leukemia ip in BDF1 mice, survival T/C; test: NCI In Vivo Anticancer Drug Screen. Data for tumor model L1210 Leukemia (intraperitoneal) in B6D2F1 (BDF1) mice; settings: endpoint: mean survival time; dose: 200.0 mg/kg/injection; schedule: Q01DX005 (ip); vehicle: saline; higher = longer survival
Toxic doses and inconclusive results are not listed.
Readout type: T/C

O=Cc1cn(C2CC(O)C(CO)O2)c(=O)[nH]c1=O (stereo unspecified): 110 % of control
CC(=O)NC1(C(=O)O)CSSC1: 93 % of control
O=CNc1nc(Cl)c2ncn(C3OC(COCc4ccccc4)C(OCc4ccccc4)C3OCc3ccccc3)c2n1 (stereo unspecified): 106 % of control
CCSC1C(OC(C)=O)C(C(COC(C)=O)OC(C)=O)OC1n1cc(C)c(=O)[nH]c1=O (stereo unspecified): 100 % of control
N#Cc1c(NN)n(C2OC(CO)C(O)C2O)c2ncncc12 (stereo unspecified): 106 % of control
OCC1OC(n2cnc3c(NCCCCNc4ncnc5c4ncn5C4OC(CO)C(O)C4O)ncnc32)C(O)C1O (stereo unspecified): 108 % of control

----------
test system: L1210 leukemia ip in BDF1 mice, survival T/C; assay: NCI In Vivo Anticancer Drug Screen. Data for tumor model L1210 Leukemia (intraperitoneal) in B6D2F1 (BDF1) mice; details: endpoint: mean survival time; dose: 25.0 mg/kg/injection; schedule: Q01DX009 (ip); vehicle: Klucel (hydroxypropylcellulose) (HPC); higher = longer survival
Toxic doses and inconclusive results are not listed.
Reported T/C values follow for various compounds
Readout type: T/C

CCOC1(OCC)C(Cl)=C(Cl)C(Cl)=C1Cl: 110 % of control
CC(=O)Nc1cccc2c(C)ccnc12: 97 % of control
CC(C)(O)C(C)(O)c1cccc(Cl)c1 (configuration not stated): 109 % of control
COc1ccc(N=C=Nc2ccc(OC)cc2)cc1: 108 % of control
CN1C(=O)CC2(CCN(CCCC(=O)c3ccc(F)cc3)CC2)C1=O: 101 % of control
CCC(=O)OC1(c2ccccc2)CCN(CCC(O)c2ccccc2)CC1 (configuration not stated): 94 % of control
Cc1ccc(Nc2c3ccccc3nc3ccccc23)cc1C: 94 % of control
C/C(=N\NC(=O)C1CCCO1)c1cccc2ccccc12 (configuration not stated): 114 % of control
COC(=O)c1ccc(OC(=O)Nc2ccc([N+](=O)[O-])cc2OC)cc1: 96 % of control
Clc1cc(Cl)c(OCC#CI)c(Cl)c1Cl: 92 % of control
COc1cc(C(=O)NNC(=O)C(=O)NNC(=O)c2cc(OC)c(OC)c(OC)c2)cc(OC)c1OC: 102 % of control
N#CSc1ccc(Nc2ccc(SC#N)cc2)cc1: 98 % of control
